# System Under Test: 2019-nCoV 3CL protease (Severe acute respiratory syndrome coronavirus 2, UniProt P0DTD1)
# Construct: against 3CL protease of 2019 novel coronavirus (2019-nCoV 3CL^pro)
# Measurement Description: Inhibitory activity against 3CL protease of 2019 novel coronavirus (FRET)
# Format: biochemical
# Measurement Setup: FRET, 37° C., substrate 20 μM
IC50 strictly less than 6 µM = Y. Otherwise N.

Cc1ccc(CN(C)C(=O)C(=O)[C@H](C[C@@H]2CCCNC2=O)NC(=O)[C@H](CC2CCCCC2)NC(=O)c2cc3ccccc3o2)cc1 | Y
O=C(NCc1ccccc1)C(=O)[C@H](C[C@@H]1CCNC1=O)NC(=O)[C@H](Cc1ccccc1)NC(=O)c1cn2cc(Br)ccc2n1 | Y
O=C(NCc1ccccc1)C(=O)[C@H](C[C@@H]1CCNC1=O)NC(=O)[C@H](CC1CCCCC1)NC(=O)c1cc2ccccc2s1 | N
O=C(NC1CCCCC1)C(=O)[C@H](C[C@@H]1CCNC1=O)NC(=O)[C@H](Cc1ccccc1)NC(=O)c1cc2ccccc2o1 | N
O=C(CC[C@H](NC(=O)[C@H](Cc1ccccc1)NC(=O)c1cnc2ccccc2n1)C(=O)C(=O)NCc1ccccc1)NC1CCCCC1 | Y
CC(C)NC(=O)CC[C@H](NC(=O)[C@H](Cc1ccccc1)NC(=O)c1cnc2ccccc2n1)C(=O)C(=O)NCc1ccccc1 | Y
O=C(NCc1ccc(-c2ccccc2)cc1)C(=O)[C@H](C[C@@H]1CCCNC1=O)NC(=O)[C@H](CC1CCCCC1)NC(=O)c1cc2ccccc2o1 | Y
O=C(NC1CCCCC1)C(=O)[C@H](C[C@@H]1CCCNC1=O)NC(=O)[C@H](Cc1ccccc1)NC(=O)c1cc2ccccc2o1 | N
CC(C)C[C@H](NC(=O)c1cc2c(Cl)cc(Cl)cc2[nH]1)C(=O)N[C@@H](C[C@@H]1CCNC1=O)C(=O)C(=O)NC(C)(C)C | N

====

# Test system: 2019 novel coronavirus (2019-nCov)
# Measurement Description: Inhibitory activity on replication of 2019 novel coronavirus (cytopathic effect, MTS, RD cells)
# Type: cell-based
# Measurement Setup: Severe acute respiratory syndrome coronavirus 2, RD, read-out: EC50, inhibition of 2019-nCoV virus replication
Observable: EC50 (nM)

O=C(NCc1ccccc1)C(=O)[C@H](C[C@@H]1CCNC1=O)NC(=O)[C@H](CC1CCCCC1)NC(=O)c1ccc2ccccc2n1 | 580
O=C(NCc1ccccc1)C(=O)[C@H](C[C@@H]1CCCNC1=O)NC(=O)[C@H](Cc1ccc(F)cc1)NC(=O)c1cc2ccccc2o1 | 296
O=C(NCc1ccccc1)C(=O)[C@H](C[C@@H]1CCCNC1=O)NC(=O)[C@H](CC1CCCCC1)NC(=O)c1cc2ccccc2o1 | 9240

====

IC50: recorded values
# System Under Test: 2019-nCoV 3CL protease (Severe acute respiratory syndrome coronavirus 2, UniProt P0DTD1)
# Construct: against 3CL protease of 2019 novel coronavirus (2019-nCoV 3CL^pro)
# Measurement Description: Inhibitory activity against 3CL protease of 2019 novel coronavirus (FRET)
# Type: biochemical
# Measurement Setup: FRET, 37° C., substrate 20 μM
Observable: IC50 (µM)

O=C(NCc1ccccc1)C(=O)[C@H](C[C@@H]1CCCNC1=O)NC(=O)[C@H](CC1CCCCC1)NC(=O)c1cccnn1 | 5.6
O=C(NCc1ccccc1)C(=O)[C@H](C[C@@H]1CCNC1=O)NC(=O)[C@H](Cc1cccc(F)c1)NC(=O)c1ccc2ccccc2n1 | 8.5
Cn1c(C(=O)N[C@@H](CC2CCCCC2)C(=O)N[C@@H](C[C@@H]2CCCNC2=O)C(=O)C(=O)NC2CCCCC2)cc2ccccc21 | 9.8
CCOc1ccc2oc(C(=O)N[C@@H](CC3CCCCC3)C(=O)N[C@@H](C[C@@H]3CCCNC3=O)C(=O)C(=O)NCc3ccccc3)cc2c1 | 9.5
C[C@@H](NC(=O)C(=O)[C@H](C[C@@H]1CCNC1=O)NC(=O)[C@H](CC1CCCCC1)NC(=O)c1ccc2ccccc2n1)c1ccccc1 | 26.4
Cn1c(C(=O)N[C@@H](CC2CCCCC2)C(=O)N[C@@H](C[C@@H]2CCCNC2=O)C(=O)C(=O)NC(C)(C)C)cc2ccccc21 | 15.2
